Experiment: Binding affinity to Fe2+ using FeCl2 at 20 uM after 5 mins by spectrophotometry
Active and inactive are the calls of the source. The rule behind the calls is not given here.
Answer with one of the outcomes given here: active, inactive

[[record]]
compound = "Oc1ccccc1/N=C/c1c(O)ccc2ccccc12"
cat = "inactive"

[[record]]
compound = "Oc1ccc(/C=C/c2cc(O)cc(O)c2)cc1 [RESVERATROL]"
cat = "active"

[[record]]
compound = "Oc1ccc(CNc2ccccc2O)cc1"
cat = "inactive"

[[record]]
compound = "Oc1cccc(CNc2ccccc2O)c1"
cat = "inactive"

[[record]]
compound = "Oc1ccc(CNc2ccccc2O)cc1O"
cat = "inactive"

[[record]]
compound = "Oc1ccc(/N=C/c2c(O)ccc3ccccc23)c(O)c1"
cat = "inactive"


Continue with the compound presented below.
Query: What outcome does the record of this test show for Oc1c(I)cc(Cl)c2cccnc12 [CLIOQUINOL] ?
Reply: active

---

Test: Inhibition of Cu2+-amyloid beta (1 to 40) catalyzed generation of hydroxyl radical assessed as rate of radical formation per min at 2 equiv preincubated for 1 hr followed by CCA addition measured over 60 mins by CCA based fluorescence assay (reference value: 13 +/- 0.2 a.u.)
observable: Activity (a.u.)
Supply the numeric figure in a.u., leaving out any unit text.

// solved cases for Activity follow
[[record]]
chemical_structure = "Oc1ccccc1/N=C/c1c(O)ccc2ccccc12"
u = "a.u."
val = 0

[[record]]
chemical_structure = "Oc1ccc(CNc2ccccc2O)cc1O"
u = "a.u."
val = 4

[[record]]
chemical_structure = "Oc1cccc(CNc2ccccc2O)c1"
u = "a.u."
val = 5.4


Query: Name the recorded Activity of the item Oc1ccc(/N=C/c2c(O)ccc3ccccc23)c(O)c1 in your answer.
Reply: 0.03

Query: Name the recorded Activity of the item Oc1ccc(/C=C/c2cc(O)cc(O)c2)cc1 in your answer.
Reply: 11.2

Query: Name the recorded Activity of the item Oc1ccc(CNc2ccccc2O)cc1 in your answer.
Reply: 6.8

Query: Name the recorded Activity of the item Oc1c(I)cc(Cl)c2cccnc12 in your answer.
Reply: 1.2

---

Assay: Antioxidant activity assessed as AAPH radical scavenging activity preincubated for 30 mins followed by AAPH addition measured after 60 mins by ORAC assay
Type: physicochemical
observable: IC50 (nM)
Supply the numeric figure in nM, leaving out any unit text.

Query: Name the recorded IC50 of the item Oc1ccc(CNc2ccccc2O)cc1 in your answer.
Reply: 1380

Query: Name the recorded IC50 of the item Oc1c(I)cc(Cl)c2cccnc12 in your answer.
Reply: 9720

Query: Name the recorded IC50 of the item Oc1ccc(CNc2ccccc2O)cc1O in your answer.
Reply: 610

Query: Name the recorded IC50 of the item Oc1ccc(/N=C/c2c(O)ccc3ccccc23)c(O)c1 in your answer.
Reply: 3150

Query: Name the recorded IC50 of the item O=C1O[C@H]([C@@H](O)CO)C(O)=C1O in your answer.
Reply: 62200

Query: Name the recorded IC50 of the item Oc1cccc(CNc2ccccc2O)c1 in your answer.
Reply: 1240

Query: Name the recorded IC50 of the item Oc1ccccc1/N=C/c1c(O)ccc2ccccc12 in your answer.
Reply: 11500

Query: Name the recorded IC50 of the item Oc1ccc(/C=C/c2cc(O)cc(O)c2)cc1 in your answer.
Reply: 1700

---

Target: Amyloid-beta precursor protein (Homo sapiens) (UniProt P05067)
Sequence (P05067 whole entry): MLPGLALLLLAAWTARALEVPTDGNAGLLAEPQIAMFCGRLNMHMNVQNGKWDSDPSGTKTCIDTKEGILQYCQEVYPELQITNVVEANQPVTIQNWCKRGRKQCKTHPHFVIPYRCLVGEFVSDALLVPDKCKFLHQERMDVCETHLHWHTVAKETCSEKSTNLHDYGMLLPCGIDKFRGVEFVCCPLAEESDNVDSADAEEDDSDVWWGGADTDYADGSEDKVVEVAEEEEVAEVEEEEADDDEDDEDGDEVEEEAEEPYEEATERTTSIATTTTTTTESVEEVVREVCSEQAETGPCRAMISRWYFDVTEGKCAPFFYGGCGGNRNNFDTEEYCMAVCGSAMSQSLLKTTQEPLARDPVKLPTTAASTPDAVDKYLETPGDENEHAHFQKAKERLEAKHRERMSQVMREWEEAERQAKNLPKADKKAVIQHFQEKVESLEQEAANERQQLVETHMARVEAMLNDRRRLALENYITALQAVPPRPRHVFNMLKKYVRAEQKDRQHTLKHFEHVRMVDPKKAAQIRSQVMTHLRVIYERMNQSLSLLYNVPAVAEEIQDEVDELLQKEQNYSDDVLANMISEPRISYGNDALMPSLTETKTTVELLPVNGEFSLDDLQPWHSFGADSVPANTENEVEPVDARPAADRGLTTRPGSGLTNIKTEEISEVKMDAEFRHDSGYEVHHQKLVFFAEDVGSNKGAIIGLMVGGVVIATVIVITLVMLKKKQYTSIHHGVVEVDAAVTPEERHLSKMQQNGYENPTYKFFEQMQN
Assay: Inhibition of self-induced amyloid beta (1 to 40) (unknown origin) fibril aggregation assessed as remaining fibril aggregates at 100 uM after 7 days at pH 6.60 by thioflavin-T fluorescence assay
Classification field: 1 = Activity at or over 7%; -1 = Activity under 7%.

For orientation, consider the following solved cases.
[[record]]
chemical_structure = "Oc1cccc(CNc2ccccc2O)c1"
cat = -1

[[record]]
chemical_structure = "Oc1c(I)cc(Cl)c2cccnc12"
cat = 1

[[record]]
chemical_structure = "Oc1ccc(CNc2ccccc2O)cc1O"
cat = 1

[[record]]
chemical_structure = "Oc1ccccc1/N=C/c1c(O)ccc2ccccc12"
cat = 1

[[record]]
chemical_structure = "Oc1ccc(/C=C/c2cc(O)cc(O)c2)cc1"
cat = -1

[[record]]
chemical_structure = "Oc1ccc(CNc2ccccc2O)cc1"
cat = -1


Continue with the compound presented below.
Query: Confirm if Activity reported for the compound Oc1ccc(/N=C/c2c(O)ccc3ccccc23)c(O)c1 is 7% or above.
Reply: -1
